# Tgt: H274Y neuraminidase mutant from A/WSN/1933 (H1N1) (Influenza A virus, UniProt P03470, H259Y)
# Experimental Details: biochemical
pIC50: −log10 of the molar value.

>  <Smiles>
CC(=O)N[C@H]1[C@H]([C@H](O)[C@H](O)CO)OC(P(=O)(O)O)=C[C@@H]1N

>  <pIC50>
9.30

$$$$
>  <Smiles>
CC(=O)N[C@H]1[C@H]([C@H](O)[C@H](O)CO)OC(P(=O)(O)O)=C[C@@H]1NC(=N)N

>  <pIC50>
9.60

$$$$
